These entries and their values trace back to the supplement of paper PMC8253809.

system: DIPGX9 (diffuse intrinsic pontine glioma line); assay: growth inhibition (% activity, log2 RLU normalised to DMSO / staurosporine); higher = more growth inhibition; conditions: 33 µM
Reported Property: growth inhibition (%)
Report the figure in % without appending any unit label.

Molecule: CC(C)C[C@H](NC(=O)[C@H](O)[C@H](N)Cc1ccccc1)C(=O)O
Units Label: %
growth inhibition: -1

Molecule: CCN(CC)CC(=O)Nc1c(C)cccc1C
Units Label: %
growth inhibition: 1.09

Molecule: CCCc1cc(C(N)=S)ccn1
Units Label: %
growth inhibition: -1.15

Molecule: CCN[C@@H]1C[C@H](N)[C@@H](O[C@H]2OC(CN)=CC[C@H]2N)[C@H](O)[C@H]1O[C@H]1OC[C@](C)(O)[C@H](NC)[C@H]1O
Units Label: %
growth inhibition: 2.1

Molecule: O=C1NCC2(CCN(CCc3ccccc3)CC2)O1
Units Label: %
growth inhibition: 1.98

Next molecule, please.
Reported growth inhibition, molecule c1ccc2c(c1)CCCC2C1=NCCN1 (stereo unspecified) : ____ 2.1
